Read-out: Pselectin, SELP (gene 6403)
PROTOCOL_NOTES: BSK_4H_Pselectin: BioMAP Diversity Plus: 4H Assay for Pselectin Biomarker Activity (AID 2283026)
TEST_PARAMETERS: primary human endothelial cells (HUVEC); actives raise or lower the signal
Experimental: BSK_4H is a cell-based, multiplexed-readout assay that uses umbilical vein endothelium, a human vascular primary cell, with measurements taken at 24 hours after chemical dosing in a 96-well plate.BSK_4H_Pselectin is an assay component measured in the BSK_4H assay. It measures P-Selectin antibody related to regulation of gene expression using ELISA technology.Data from the assay component BSK_4H_Pselectin was analyzed into 1 assay endpoint. […]
The source made the active and inactive calls. Rule for the calls: active = hit-call score of the fitted dose curve at least 0.9, where 1 is the maximum; inactive = score below 0.9.
Valid outcomes are listed here; reply with one: active, inactive

Here's what some known entries look like.
>>> answer_label("CCOP(=S)(NC(C)C)Oc1ccccc1C(=O)OC(C)C (stereo not drawn)")
"inactive"
>>> answer_label("OCC(F)(F)OC(F)(F)C(F)(F)OC(F)(F)CO")
"inactive"
>>> answer_label("ClC(Cl)=C(c1ccc(Cl)cc1)c1ccccc1Cl")
"active"
>>> answer_label("CCN(CC)c1ccccc1")
"inactive"
>>> answer_label("COC(=O)C(F)(F)C(F)(F)OC(F)(C(F)(F)F)C(F)(F)OC(F)=C(F)F (stereo not drawn)")
"inactive"

Query: Dear colleague, could you share the recorded outcome for `c1cc2c3c(cccc3c1)CC2` when you have a moment?
Reply: inactive

Query: Dear colleague, could you share the recorded outcome for `c1ccc2c(c1)sc1ccccc12` when you have a moment?
Reply: inactive

Query: Dear colleague, could you share the recorded outcome for `O=C(O)C(F)(F)OC(F)(F)C(F)(F)OC(F)(F)F` when you have a moment?
Reply: inactive

----------
PROTOCOL_NOTES: ATG_E_Box_CIS: Attagene CIS-FACTORIAL HepG2 Assay for human Enhancer Box (E-box) (AID 2282936)
TEST_PARAMETERS: HepG2 E-box cis-reporter transcription, actives raise or lower the signal
Description: ATG_CIS is a cell-based, multiplexed-readout assay that uses HepG2, a human liver cell line, with measurements taken at 24 hours after chemical dosing in a 24-well plate.ATG_E_Box_CIS is one of 52 assay component(s) measured or calculated from the ATG_CIS assay. […] This assay endpoint, ATG_E_Box_CIS, was analyzed with bidirectional fitting relative to DMSO as the negative control and baseline of activity. […]
Activity calls are given as the source filed them. The calls were made as follows: active = hit-call score of the fitted dose curve at least 0.9, where 1 is the maximum; inactive = score below 0.9.
MEASURE_NAME: AC50

>>> readout_value("CCOc1ccc(C(C)(C)COCc2cccc(Oc3ccccc3)c2)cc1")
"inactive"
>>> readout_value("O=C(O)C=CC(F)(C(F)(F)F)C(F)(F)F")
"inactive"
>>> readout_value("CC1(C)CN=C(NN=C(/C=C/c2ccc(C(F)(F)F)cc2)/C=C/c2ccc(C(F)(F)F)cc2)NC1")
"13.7 µM (active)"
>>> readout_value("O=C(O)C(Cl)Cl")
"inactive"
>>> readout_value("Nc1cc2c3c(c1)C(c1ccccc1)=N[C@@H](NC(=O)c1cccnc1)C(=O)N3CC2")
"inactive"

Query: Look at this molecule and give its reported AC50. O=C(O)C(F)(OC(F)(F)C(F)(F)C(F)(F)F)C(F)(F)F (configuration not stated)
Reply: inactive

Query: Look at this molecule and give its reported AC50. `N#Cc1ccc(O)cc1`
Reply: inactive

Query: Look at this molecule and give its reported AC50. `c1ccc2c(c1)sc1ccccc12`
Reply: inactive

Query: Look at this molecule and give its reported AC50. `O=C(O)C(F)(F)OC(F)(F)C(F)(F)OC(F)(F)F`
Reply: inactive

Query: Look at this molecule and give its reported AC50. `CC(C)CBr`
Reply: inactive

Query: Look at this molecule and give its reported AC50. `c1ccc2c(c1)Nc1ccccc1S2`
Reply: inactive

Query: Look at this molecule and give its reported AC50. `CC(=O)CCc1ccc2c(c1)OCO2`
Reply: inactive

Query: Look at this molecule and give its reported AC50. `c1nc[nH]n1`
Reply: inactive

----------
PROTOCOL_NOTES: ATG_M_32_CIS: Attagene CIS-FACTORIAL HepG2 Assay for M32 Transcription Factor (Internal Marker) (AID 2282949);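 note: background control marker of the multiplexed CIS panel rather than a real target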
TEST_PARAMETERS: HepG2 Attagene cis-factorial M32 reporter, mRNA; actives raise or lower the signal
Active and inactive are the calls of the source. Rule for the calls: active = hit-call score of the fitted dose curve at least 0.9, where 1 is the maximum; inactive = score below 0.9.
Valid outcomes are listed here; reply with one: Y (active), N (inactive)

Here's what some known entries look like.
>>> answer_label("CCN(CC)C1CCCCC1")
"N"
>>> answer_label("FC(F)(F)C(F)(C(F)(F)F)C(F)(F)C(F)(F)CC1CO1 (stereo not drawn)")
"N"

Shifting focus to the compound that follows.
Query: Dear colleague, could you share the recorded outcome for `CC1(C)CN=C(NN=C(/C=C/c2ccc(C(F)(F)F)cc2)/C=C/c2ccc(C(F)(F)F)cc2)NC1` when you have a moment?
Reply: Y

----------
PROTOCOL_NOTES: BSK_hDFCGF_SRB: Viability Assessment in the BioMAP Diversity Plus: hDFCGF Assay (AID 2283061);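 note: cells exposed to compound for 24 h before the read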
TEST_PARAMETERS: primary human foreskin fibroblasts
The source made the active and inactive calls. Rule for the calls: active = hit-call score of the fitted dose curve at least 0.9, where 1 is the maximum; inactive = score below 0.9.
Valid outcomes are listed here; reply with one: Yes = active, No = inactive

Here's what some known entries look like.
>>> answer_label("CCCCC(CC)COP(=O)(Oc1ccccc1)Oc1ccccc1 (stereo unspecified)")
"Yes"
>>> answer_label("CCOc1ccc(C(C)(C)COCc2cccc(Oc3ccccc3)c2)cc1")
"No"
>>> answer_label("OCC(F)(F)OC(F)(F)C(F)(F)OC(F)(F)C(F)(F)OC(F)(F)F")
"No"
>>> answer_label("Nc1ccc2ccccc2c1")
"No"

Shifting focus to the molecule that follows.
Query: Dear colleague, could you share the recorded outcome for `ClC(Cl)c1ccccc1` when you have a moment?
Reply: No

----------
Read-out: Interferon-gamma inducible Protein 10 (IP10), CXCL10 (gene 3627)
PROTOCOL_NOTES: BSK_BE3C_IP10: BioMAP Diversity Plus: BE3C Assay for Interferon-gamma inducible Protein 10 (IP10) Biomarker Activity (AID 2283034)
TEST_PARAMETERS: primary human bronchial epithelial cells; actives raise or lower the signal
Activity calls are given as the source filed them. The calls were made as follows: active = hit-call score of the fitted dose curve at least 0.9, where 1 is the maximum; inactive = score below 0.9.
Valid outcomes are listed here; reply with one: active, inactive

Here's what some known entries look like.
>>> answer_label("CCN(CC)c1ccccc1")
"inactive"
>>> answer_label("Nc1ccc(Cl)cc1")
"inactive"
>>> answer_label("NC(=O)C(F)(F)C(F)(F)F")
"inactive"
>>> answer_label("OCC(F)(F)OC(F)(F)C(F)(F)OC(F)(F)C(F)(F)OC(F)(F)F")
"inactive"
>>> answer_label("CC(C)(C)c1ccccc1OP(=O)(Oc1ccccc1)Oc1ccccc1")
"inactive"

Query: Dear colleague, could you share the recorded outcome for O=P(OCC(Br)CBr)(OCC(Br)CBr)OCC(Br)CBr (stereo not drawn) when you have a moment?
Reply: inactive

Query: Dear colleague, could you share the recorded outcome for ClC1=C(Cl)C2(Cl)C3C(Cl)C(Cl)CC3C1(Cl)C2(Cl)Cl (stereo not drawn) when you have a moment?
Reply: active

Query: Dear colleague, could you share the recorded outcome for `CCCCN(CCCC)SN(C)C(=O)Oc1cccc2c1OC(C)(C)C2` when you have a moment?
Reply: inactive

----------
PROTOCOL_NOTES: ATG_E_Box_CIS: Attagene CIS-FACTORIAL HepG2 Assay for human Enhancer Box (E-box) (AID 2282936)
TEST_PARAMETERS: HepG2 E-box cis-reporter transcription, actives raise or lower the signal
Activity calls are given as the source filed them. How the source made its calls: active means hit-call score of the fitted dose curve at least 0.9, where 1 is the maximum; inactive means score below 0.9.
MEASURE_NAME: AC50

>>> readout_value("O=S1(=O)OCC2C(CO1)C1(Cl)C(Cl)=C(Cl)C2(Cl)C1(Cl)Cl (centres undefined)")
"26.5 µM (active)"
>>> readout_value("Cc1ccc(N)cc1N")
"inactive"
>>> readout_value("CC(=O)c1ccc(-c2ccccc2)cc1")
"inactive"
>>> readout_value("O=P1(N(CCCl)CCCl)NCCCO1 (centres undefined)")
"inactive"

----------
PROTOCOL_NOTES: BSK_hDFCGF_SRB: Viability Assessment in the BioMAP Diversity Plus: hDFCGF Assay (AID 2283061);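 note: cells exposed to compound for 24 h before the read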
TEST_PARAMETERS: primary human foreskin fibroblasts
Calls of active or inactive are those of the source. The calls were made as follows: active = hit-call score of the fitted dose curve at least 0.9, where 1 is the maximum; inactive = score below 0.9.
Valid outcomes are listed here; reply with one: class 1 for active, class 0 for inactive

Here's what some known entries look like.
>>> answer_label("CCCCc1ccccc1")
"class 0"
>>> answer_label("CC(C)Nc1ccc(Nc2ccccc2)cc1")
"class 1"

Query: Dear colleague, could you share the recorded outcome for `Nc1ccc(Cl)cc1` when you have a moment?
Reply: class 0

Query: Dear colleague, could you share the recorded outcome for CC(Cc1ccc(OCC(=O)O)cc1)NCC(O)c1csc(C(F)(F)F)n1 (stereo unspecified) when you have a moment?
Reply: class 0

Query: Dear colleague, could you share the recorded outcome for `CC(C)(C)c1ccc(O)cc1` when you have a moment?
Reply: class 0

Query: Dear colleague, could you share the recorded outcome for `COP(=O)(CCC(=O)NCO)OC` when you have a moment?
Reply: class 0

Query: Dear colleague, could you share the recorded outcome for CCOP(=S)(Oc1ccc([N+](=O)[O-])cc1)c1ccccc1 (stereo unspecified) when you have a moment?
Reply: class 0

Query: Dear colleague, could you share the recorded outcome for `CSC(C)(C)C=NO` when you have a moment?
Reply: class 0

Query: Dear colleague, could you share the recorded outcome for `CCCCN(CCCC)N=O` when you have a moment?
Reply: class 0

Query: Dear colleague, could you share the recorded outcome for `O=C(O)C(F)(F)OC(F)(F)C(F)(F)OC(F)(F)F` when you have a moment?
Reply: class 0

Query: Dear colleague, could you share the recorded outcome for `Nc1cc2c3c(c1)C(c1ccccc1)=N[C@@H](NC(=O)c1cccnc1)C(=O)N3CC2` when you have a moment?
Reply: class 0

Query: Dear colleague, could you share the recorded outcome for O=P1(N(CCCl)CCCl)NCCCO1 (stereo unspecified) when you have a moment?
Reply: class 0

Query: Dear colleague, could you share the recorded outcome for `CCNc1nc(Cl)nc(NC(C)(C)C)n1` when you have a moment?
Reply: class 0

Query: Dear colleague, could you share the recorded outcome for `OCC(F)(F)OC(F)(F)C(F)(F)OC(F)(F)CO` when you have a moment?
Reply: class 0

Query: Dear colleague, could you share the recorded outcome for CC(Cl)CN(C)C (stereo unspecified) when you have a moment?
Reply: class 0

Query: Dear colleague, could you share the recorded outcome for `CCOP(=S)(OCC)SCn1nnc2ccccc2c1=O` when you have a moment?
Reply: class 0

Just for reference, PubChem BioAssay (EPA / NIEHS) is where these values come from.
